target-of-assay: hGcgR (Homo sapiens, UniProt P47871)
Sequence (P47871 26-477): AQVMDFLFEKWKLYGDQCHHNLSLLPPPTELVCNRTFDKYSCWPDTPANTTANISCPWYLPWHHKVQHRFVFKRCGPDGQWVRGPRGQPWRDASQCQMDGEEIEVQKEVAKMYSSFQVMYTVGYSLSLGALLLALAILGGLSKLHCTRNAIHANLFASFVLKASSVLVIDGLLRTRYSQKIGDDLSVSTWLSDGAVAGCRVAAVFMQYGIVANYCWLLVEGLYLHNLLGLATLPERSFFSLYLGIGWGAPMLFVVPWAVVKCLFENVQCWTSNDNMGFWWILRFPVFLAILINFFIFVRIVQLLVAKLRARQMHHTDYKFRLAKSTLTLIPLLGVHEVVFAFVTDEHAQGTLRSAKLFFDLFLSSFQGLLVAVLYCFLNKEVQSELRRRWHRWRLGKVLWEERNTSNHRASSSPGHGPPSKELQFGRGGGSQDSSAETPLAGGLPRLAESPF
method: Functional cAMP activation in the presence of 0.1% casein (no HSA);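 further: intracellular cAMP rise after 30 min at 37 °C, read by HTRF against a cAMP standard curve, scaled from buffer only (0%) to maximal control ligand response (100%)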
Format: cell-based
condition-context: read-out: Relative cAMP EC50, hGcgR
Starred links: 1 amine or outer side, 2 acyl side, 3 side chain; linkers in the order of their positions; H or OH if unused. Non-standard residues stand in square brackets, D forms with d. Groups on a side chain read outwards from the residue. *: point of attachment. C18 diacid = O=C(O)CCCCCCCCCCCCCCCCC(=O)*; αMePhe(2-F) = C[C@](N)(Cc1ccccc1F)C(=O)O; γGlu = O=C(O)[C@H](CCC(=O)[*:2])N[*:1]; αMe4Pal = C[C@](N)(Cc1ccncc1)C(=O)O; αMeY = C[C@](N)(Cc1ccc(O)cc1)C(=O)O; 4Pal = N[C@@H](Cc1ccncc1)C(=O)O; αMeL = CC(C)C[C@](C)(N)C(=O)O; αMeS = C[C@](N)(CO)C(=O)O; Orn = NCCC[C@H](N)C(=O)O; AEEA = NCCOCCOCC(=O)O; Aib = CC(C)(N)C(=O)O
value-kind: EC50 (nM)
Give the value, in units of nM, as a plain number.

{"columns": ["substance", "target-of-assay", "value-kind", "experimental-value"],
 "data": [
  ["H-Y[Aib]QGT[αMePhe(2-F)]TSD[4Pal][αMeS]I[αMeL]LD[Orn]K([AEEA-γGlu-C18 diacid])AQ[αMe4Pal]EFI[dE][αMeY]LIEGGPSSGEPPPEGGGE-NH2 [Example 760]", "hGcgR (Homo sapiens, UniProt P47871)", "EC50", 1.59],
  ["H-Y[Aib]QGT[αMePhe(2-F)]TSD[4Pal][αMeS]I[αMeL]LD[Orn]K([γGlu-γGlu-C18 diacid])AQ[Aib][Orn]FI[dE][αMeY]LSEGGPSSGEPPPSGGE-NH2 [Example 559]", "hGcgR (Homo sapiens, UniProt P47871)", "EC50", 4.07]
]}

// switching to the query substance
EC50 for H-Y[Aib]QGT[αMePhe(2-F)]TSD[4Pal][αMeS]I[αMeL]LD[Orn]K([γGlu-γGlu-C18 diacid])AQ[Aib][Orn]FI[dE]YLIEGGPSSGEPPPSGTEEE-NH2 [Example 540] is 5.62
